# TEST: modulators of glucocorticoid suppression of NF-kB, cell-based, luciferase, IL-1B stimulus, dexamethasone (AID 624486)
# CONDITION_LABEL: NF-kB luciferase reporter, IL-1B + dexamethasone, luminescence; measured here: IL-1B alone, no Dex
Reported values of z-score for individual entries
MEASURED_ENDPOINT: z-score

compound=Fc1ccc(-c2c(-c3ccncc3)n(CCN3CCOCC3)c3cccnc23)cc1 result=0.395
compound=CCn1c(=O)c(Oc2ccc(F)cc2F)cc2cnc(NC3CCOCC3)nc21 result=-0.82
compound=CN(C)c1cc2c(Nc3ccc4nc(Cc5ccccc5)[nH]c4c3)ncnc2cn1 result=-0.53
compound=COc1cc(N2CCN(C(C)C)CC2)ccc1Nc1nc(Nc2ccc(F)cc2C(=O)NC[C@@H](O)CO)c2cc[nH]c2n1 result=0
compound=CCn1c(-c2nonc2N)nc2c(C#CC(C)(C)O)nc(OC[C@@H](N)c3ccccc3)cc21 result=3.72
compound=Nc1c(C(=O)c2cccc(OCCN3CCOCC3)c2)cnn1-c1ccc(F)cc1 result=0.485
compound="O=C1NC(=O)C(c2c[nH]c3ccccc23)C1c1c[nH]c2ccccc12 (configuration not stated)" result=0.125
compound=CNC(=O)c1sc(-n2cnc3cc(OC)c(OC)cc32)cc1OCc1ccccc1C(F)(F)F result=-0.645
compound=O/N=C1/CCc2cc(-c3nc(C4CCNCC4)[nH]c3-c3ccncc3)ccc21 result=0.995
compound=CS(=O)(=O)Nc1cccc(-c2ccc3c(NC(=O)C4CC4)n[nH]c3c2)c1 result=0.535
compound=Cc1nc2sc3c(N)ncnc3c2c(C)c1C result=-1.64
compound=Nc1ccc(C#Cc2cncnc2Nc2ccc(OCc3cccc(F)c3)c(Cl)c2)cc1 result=0.915

---

Reported values of log fold change Tl+ flux for individual entries
# Test system: R275C/beta4
# TEST: modulators of BK channel variants, profiling panel, selectivity assay, cell-based, U2OS BacMam, thallium flux, beta subunits (AID 1259406);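 also: initial slope of Thallos dye fluorescence rise after thallium is added; log ratio against the mean of 0.3% DMSO vehicle wells on the same plate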
# CONDITION_LABEL: at 30 µM
MEASURED_ENDPOINT: log fold change Tl+ flux

item_smiles=CC(=O)OCC(=O)[C@@]1(O)CC[C@H]2[C@@H]3CCC4=CC(=O)CC[C@]4(C)[C@H]3C(=O)C[C@@]21C measured_number=-0.00976
item_smiles=Cn1c(=O)c2[nH]cnc2n(C)c1=O measured_number=0.0294
item_smiles=CC1(C)O[C@@H]2C[C@H]3[C@@H]4C[C@H](F)C5=CC(=O)C=C[C@]5(C)[C@H]4[C@@H](O)C[C@]3(C)[C@]2(C(=O)CO)O1 measured_number=0.0291

---

# TEST: kinase inhibitors against Plasmodium liver-stage infection, cell-based, known kinase inhibitor set, luminescence, hepatoma host viability (AID 624392);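 also: infected cells incubated roughly two days before readout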
# CONDITION_LABEL: Plasmodium liver stage in hepatoma cells, luciferase luminescence, concentration not given here; stronger effect = lower value
Reported values of parasite % of control for individual entries
MEASURED_ENDPOINT: parasite % of control (%)

compound="CNC(C#Cc1c(F)ccc2c1C(=Cc1[nH]ccc1OC)C(=O)N2)CO (stereo not drawn)" measured_endpoint="parasite % of control" measured_number=62.7
compound=COc1cccc(C2=C(c3cn(C)c4ccccc34)C(=O)NC2=O)c1 measured_endpoint="parasite % of control" measured_number=15.4
compound=Cn1cc(C2=C(c3cn(CCCCO)c4ccccc34)C(=O)NC2=O)c2ccccc21 measured_endpoint="parasite % of control" measured_number=14.3

---

# TEST: kinase inhibitors against Plasmodium liver-stage infection, cell-based, known kinase inhibitor set, luminescence, hepatoma host viability (AID 624392);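 also: infected cells incubated roughly two days before readout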
# CONDITION_LABEL: Plasmodium liver stage in hepatoma cells, luciferase luminescence, concentration not given here; measured here: host liver cell viability
MEASURED_ENDPOINT: liver cell % of control

compound=Cn1c(=O)c(Cc2ccccc2F)cc2cnc(NC3CCOCC3)nc21 result=106%
compound=NS(=O)(=O)c1ccc(N=Nc2c(O)[nH]c3ccc(C(=O)NCc4ccncc4)cc23)cc1 result=77.7%
compound=COc1ccc(-c2nn3ncccc3c2-c2ccnc(Nc3ccc(Cl)c(C(F)(F)F)c3)n2)cc1 result=101%
compound=NC(=O)c1sc(-n2cnc3cc(C(F)(F)F)ccc32)cc1OCc1ccccc1Br result=109%
compound=CC(C)Nc1ncc2cc(Oc3ccc(F)cc3F)c(=O)n(C)c2n1 result=99.2%
compound=COc1ccc(-c2oc3ncnc(N)c3c2-c2ccc(NC(=O)Nc3cc(C(F)(F)F)ccc3F)cc2)cc1 result=50%
compound=COc1cccc(-n2ncc3c(N/N=C/c4ccc(C(=O)NCCN(C)C)cc4)ncnc32)c1 result=77.1%
compound=NS(=O)(=O)c1ccc(N=Nc2c(O)[nH]c3ccc(Cl)cc23)cc1 result=91.6%
compound=Nc1ncc(-c2cccc(S(N)(=O)=O)c2)c2scc(-c3ccc(F)c(Cl)c3)c12 result=86.2%
compound=Cn1cc(C2=C(c3cn(CCO)c4ccccc34)C(=O)NC2=O)c2ccccc21 result=89.7%
compound=COC(=O)Nc1nc2ccc(Oc3ccc(NC(=O)Nc4ccccc4)cc3)cc2[nH]1 result=96.2%
compound=N#Cc1ccc2c(-c3ccnc(NC4CC4)n3)c(-c3ccc(F)cc3)nn2c1 result=122%
compound=COc1cc(Nc2nccc(-c3cnn4ncccc34)n2)cc(OC)c1 result=132%
compound=CN=C1NC(=O)C(=Cc2ccc3ncccc3c2)S1 result=82.2%
compound=COc1ccc(-c2cc3c(N)ncnc3o2)cc1 result=106%
compound=COc1cc2ncn(-c3cc(O[C@@H](C)c4ccccc4Cl)c(C(N)=O)s3)c2cc1OC result=100%
compound=COc1cc(Nc2ncc(-c3ccccc3)o2)cc(OC)c1OC result=152%
compound=Cc1cc(O)cc(C)c1/C=C/c1cncc(C(N)=O)c1 result=105%
compound=CN(C)c1ccc2[nH]c(O)c(C=Nc3ccc(S(N)(=O)=O)cc3)c2c1 result=88.2%
compound=OCc1ccc(-c2nc(-c3ccc4c(c3)OCO4)c(-c3ccccn3)[nH]2)cc1 result=108%
compound=Fc1ccc(-c2ncn(C3CCNCC3)c2-c2ccnc(Oc3ccc(Cl)cc3)n2)cc1 result=79.3%
compound=N#Cc1ccc(C(=O)c2cnn(-c3ccc(F)cc3)c2N)cc1 result=103%
compound="O=C1NC(=O)C(c2c[nH]c3ccccc23)C1c1c[nH]c2ccccc12 (centres undefined)" result=102%
compound=O=C1Nc2ccc(I)cc2/C1=C\c1cc(Br)c(O)c(Br)c1 result=86.2%
compound=CN1CCN(CCc2cccc(C(=O)c3cnn(-c4ccc(F)cc4)c3N)c2)CC1 result=112%
compound=Fc1ccc(-c2c(-c3ccncc3)n(CCN3CCOCC3)c3cccnc23)cc1 result=113%
compound=CCNC(=O)O[C@H]1CN[C@H](C#Cc2cc3ncnc(Nc4ccc(OCc5cccc(F)c5)c(Cl)c4)c3s2)C1 result=105%
compound=Cn1cc(C2=C(c3c4n(c5ccccc35)CCCC4)C(=O)NC2=O)c2ccccc21 result=77.8%
compound=O=C1NC(=O)C(c2ccccc2Cl)=C1Nc1cccc(O)c1 result=91.7%

---

# TEST: fluorescence interference in NS3h assay format, artefact control for HCV NS3 helicase inhibitor project, biochemical, NIH Clinical Collection (AID 743272);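 also: HCV NS3 helicase with a Cy5 labelled single stranded DNA probe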
# CONDITION_LABEL: fluorescence interference counterscreen, stronger effect = lower value
Reported values of fluorescence ratio for individual entries
MEASURED_ENDPOINT: fluorescence ratio

molecule=OC(Cn1cncn1)(Cn1cncn1)c1ccc(F)cc1F measured_number=1.02
molecule=COc1ccc(Cl)cc1C(=O)NCCc1ccc(S(=O)(=O)NC(=O)NC2CCCCC2)cc1 measured_number=0.97
molecule=C[C@@H]1O[C@@H](OC[C@H]2O[C@@H](Oc3c(-c4ccc(O)c(O)c4)oc4cc(O)cc(O)c4c3=O)[C@H](O)[C@@H](O)[C@@H]2O)[C@H](O)[C@H](O)[C@H]1O measured_number=1.02
molecule=CC(=O)[C@H]1CC[C@H]2[C@@H]3C[C@H](C)C4=CC(=O)CC[C@]4(C)[C@H]3[C@@H](O)C[C@]12C measured_number=0.99
molecule=CCCNC(=O)NS(=O)(=O)c1ccc(Cl)cc1 measured_number=0.96
molecule=CN(C)CCOC(c1ccccc1)c1ccccc1 measured_number=0.99
molecule=CC(C)(C)NC[C@H](O)COc1nsnc1N1CCOCC1 measured_number=0.98
molecule=CCCN(CCC)S(=O)(=O)c1ccc(C(=O)O)cc1 measured_number=0.94
molecule=Cc1ccc(C)c(OCCCC(C)(C)C(=O)O)c1 measured_number=0.96
molecule=O=S(=O)(O)CCS measured_number=1
molecule=Cc1cccc(Nc2ccccc2C(=O)O)c1C measured_number=0.91
molecule=NC(=O)N1c2ccccc2CC(=O)c2ccccc21 measured_number=0.97
molecule="NS(=O)(=O)c1cc2c(cc1C(F)(F)F)NC(Cc1ccccc1)NS2(=O)=O (stereo not drawn)" measured_number=0.99
molecule=c1ccc2[nH]c(-c3cscn3)nc2c1 measured_number=0.97
molecule=Nc1ccc(S(=O)(=O)c2ccc(N)cc2)cc1 measured_number=0.95
molecule=O=C(O)c1cc(=O)c2c(OCC(O)COc3cccc4oc(C(=O)O)cc(=O)c34)cccc2o1 measured_number=1.03
molecule=Cc1onc(-c2ccccc2)c1-c1ccc(S(N)(=O)=O)cc1 measured_number=0.93
molecule=CCN(CC)CC(=O)Nc1c(C)cccc1C measured_number=0.96
